QUANTITY MEASURED: melting point

The reported value for O=C(Nc1ccc(Br)cc1)N1CCCC1c1cc2c(cc1O)OCO2 (stereo not drawn) [5d] in terms of melting point is 164 °C

# melting point (compound: O=C(Nc1ccc(F)cc1)N1CCCC1c1c(O)c2ccccc2oc1=O (stereo not drawn) [8e] ) is 165 °C

Data point: COc1ccc(NC(=O)N2CCCC2c2ccc(Nc3c([N+](=O)[O-])c(Cl)cc4c3no[n+]4[O-])cc2O)cc1 (stereo not drawn) [6c] ; melting point = 196 to 202 °C (dec.)

---

- System: Escherichia coli MG1655 (pRecA-lux)
- TEST: Genotoxicity, bacterial lux-biosensor
- Assay type: cell-based
- TEST CONDITIONS: with metabolic activation (+S9); 10^−5 M
QUANTITY MEASURED: Genotoxicity (induction factor, I)
Lab note: write the figure by itself, no unit.

The measured Genotoxicity (induction factor, I) associated with O=C(Nc1ccc(Br)cc1)N1CCCC1c1ccc(Nc2c([N+](=O)[O-])c(Cl)cc3c2no[n+]3[O-])cc1O (centres unmarked) reads 0.66

Quick note, Genotoxicity (induction factor, I) for O=[N+]([O-])c1c(Cl)cc2c(no[n+]2[O-])c1Nc1cccc(O)c1 landed at 1.11

The value of Genotoxicity (induction factor, I) measured for the molecule O=C(Nc1ccccc1)N1CCCC1c1ccc(Nc2c([N+](=O)[O-])c(Cl)cc3c2no[n+]3[O-])cc1O (centres unmarked) turned out to be 1.23

Value of measured Genotoxicity (induction factor, I) for the entry O=C(Nc1ccc(F)cc1)N1CCCC1c1ccc(Nc2c([N+](=O)[O-])c(Cl)cc3c2no[n+]3[O-])cc1O (centres unmarked) : 1.24

Reported Genotoxicity (induction factor, I) ( COc1ccc(NC(=O)N2CCCC2c2ccc(Nc3c([N+](=O)[O-])c(Cl)cc4c3no[n+]4[O-])cc2O)cc1 (centres unmarked) ) = 1.35
